molecular target: Aldo-keto reductase family 1 member A1 (Rattus norvegicus) (UniProt P51635); experiment: Inhibition of Fischer-344 rat kidney AK1A1 at 100 uM
Sequence (P51635 whole entry): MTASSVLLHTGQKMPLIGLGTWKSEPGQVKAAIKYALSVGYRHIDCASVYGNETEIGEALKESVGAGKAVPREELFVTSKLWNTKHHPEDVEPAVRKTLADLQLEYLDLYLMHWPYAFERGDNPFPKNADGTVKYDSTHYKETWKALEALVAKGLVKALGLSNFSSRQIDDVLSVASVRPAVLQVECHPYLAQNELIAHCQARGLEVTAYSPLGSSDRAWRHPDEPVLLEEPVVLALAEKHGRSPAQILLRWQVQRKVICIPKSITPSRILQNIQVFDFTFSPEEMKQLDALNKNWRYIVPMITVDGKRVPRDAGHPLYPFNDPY
Entries and their inhibition values follow.

| substance_smiles | tested_on | inhibition, % |
| --- | --- | --- |
| O=S(=O)(Nc1nnn[nH]1)c1ccccc1 | Aldo-keto reductase family 1 member A1 (Rattus norvegicus) (UniProt P51635) | 21.7 |
| O=S(=O)(NCc1nnn[nH]1)c1ccccc1 | Aldo-keto reductase family 1 member A1 (Rattus norvegicus) (UniProt P51635) | 19.9 |
| COc1ccc(C(=O)Nc2ccc(S(=O)(=O)Nc3cc(F)c(O)c(F)c3)cc2)cc1 | Aldo-keto reductase family 1 member A1 (Rattus norvegicus) (UniProt P51635) | 71.7 |
| COc1ccc(S(=O)(=O)Nc2cc(F)c(O)c(F)c2)cc1 | Aldo-keto reductase family 1 member A1 (Rattus norvegicus) (UniProt P51635) | 83 |
| Nc1ccc(S(=O)(=O)N(Cc2ccc(Br)cc2F)c2cc(F)c(O)c(F)c2)cc1 | Aldo-keto reductase family 1 member A1 (Rattus norvegicus) (UniProt P51635) | 95.3 |
| O=C1NOC[C@H]1NS(=O)(=O)c1ccccc1 | Aldo-keto reductase family 1 member A1 (Rattus norvegicus) (UniProt P51635) | 22.4 |
| O=[N+]([O-])c1ccc(S(=O)(=O)N(Cc2ccc(Br)cc2F)c2cc(F)c(O)c(F)c2)cc1 | Aldo-keto reductase family 1 member A1 (Rattus norvegicus) (UniProt P51635) | 69.8 |
| O=C1NOC[C@@H]1NS(=O)(=O)c1ccccc1 | Aldo-keto reductase family 1 member A1 (Rattus norvegicus) (UniProt P51635) | 2.67 |
| O=S(=O)(c1ccccc1)N(c1cc(F)c(O)c(F)c1)S(=O)(=O)c1ccccc1 | Aldo-keto reductase family 1 member A1 (Rattus norvegicus) (UniProt P51635) | 93.8 |
| O=C(O)CNS(=O)(=O)c1ccccc1 | Aldo-keto reductase family 1 member A1 (Rattus norvegicus) (UniProt P51635) | 30.5 |
| O=S(=O)(c1ccccc1)N(Cc1ccc(Br)cc1F)c1cc(F)c(O)c(F)c1 | Aldo-keto reductase family 1 member A1 (Rattus norvegicus) (UniProt P51635) | 69.2 |

---

organism: Rattus norvegicus; assay: Selectivity ratio of inhibition of Fischer-344 rat lens ALR2sto inhibition of Fischer-344 rat kidney AK1A1 at 100 uM; assay type: tissue-based; conditions: Lens of camera-type eye
Below, each of the compounds is paired with its reported Selectivity ratio value.

| substance_smiles | Selectivity ratio |
| --- | --- |
| O=C1NOC[C@H]1NS(=O)(=O)c1ccccc1 | 1.15 |
| O=C1NOC[C@@H]1NS(=O)(=O)c1ccccc1 | 18.3 |
| O=S(=O)(NCc1nnn[nH]1)c1ccccc1 | 1.2 |
| O=S(=O)(Nc1nnn[nH]1)c1ccccc1 | 2.06 |
| O=C(O)CNS(=O)(=O)c1ccccc1 | 1.69 |
| CS(=O)(=O)NC(=O)CNS(=O)(=O)c1ccccc1 | 2.69 |
| O=S(=O)(Nc1cc(F)c(O)c(F)c1)c1ccccc1 | 0.89 |

---

target: Aldo-keto reductase family 1 member A1 (Rattus norvegicus) (UniProt P51635); test: Inhibition of Fischer-344 rat kidney AK1A1 at 100 uM
The label depends only on inhibition: true (1) if it is at least 60%, false (0) if it is smaller.

| substance_smiles | label_value |
| --- | --- |
| O=S(=O)(Nc1cc(F)c(O)c(F)c1)c1ccc(-n2cccc2)cc1 | false (0) |
| CS(=O)(=O)NC(=O)CNS(=O)(=O)c1ccccc1 | false (0) |
| CCNC(=O)Nc1ccc(S(=O)(=O)Nc2cc(F)c(O)c(F)c2)cc1 | true (1) |
| O=S(=O)(Nc1cc(F)c(O)c(F)c1)c1ccccc1 | true (1) |
| O=S(=O)(Nc1cc(F)c(O)c(F)c1)c1ccc(C(F)(F)F)cc1 | false (0) |
| O=C(Nc1ccc(S(=O)(=O)Nc2cc(F)c(O)c(F)c2)cc1)c1ccccc1 | true (1) |
| Nc1ccc(S(=O)(=O)Nc2cc(F)c(O)c(F)c2)cc1 | true (1) |
| O=[N+]([O-])c1ccc(S(=O)(=O)Nc2cc(F)c(O)c(F)c2)cc1 | false (0) |
